- TEST: Plasma PK of TAK-831 after single oral administration in mice (target occupancy study, 1-compartment model)
- Format: in vivo, C57BL/6 J mice
- PARTICULARS: C57BL/6 J, mouse, plasma, po, single p.o. 0.3-10 mg/kg, model estimate, read-out: CLp oral clearance (converted)
MEASURED ENDPOINT: CL/F (mL/min/kg)
Please give a number only; it is taken to be in mL/min/kg.

Reported CL/F of O=c1[nH]nc(CCc2ccc(C(F)(F)F)cc2)cc1O [TAK-831] : 85.7

====

- TEST: in vivo
- PARTICULARS: C57BL/6 J, mouse
MEASURED ENDPOINT: fraction unbound
Respond using a number only.

Reported fraction unbound of O=c1[nH]nc(CCc2ccc(C(F)(F)F)cc2)cc1O : 0.425

====

- TEST: Plasma PK of TAK-831 after single oral administration in mice (target occupancy study, 1-compartment model)
- Format: in vivo, C57BL/6 J mice
- PARTICULARS: C57BL/6 J, mouse, plasma, po, single p.o., first sampling at 2 h
MEASURED ENDPOINT: Tmax

Reported Tmax of O=c1[nH]nc(CCc2ccc(C(F)(F)F)cc2)cc1O [TAK-831] : ≤ 2 h

====

- TEST: in vivo
- PARTICULARS: mouse
MEASURED ENDPOINT: Kp uu
Respond using a number only.

Reported Kp uu of O=c1[nH]nc(CCc2ccc(C(F)(F)F)cc2)cc1O [TAK-831] : 1

====

- TEST: Free fraction of TAK-831 in human plasma
- Format: in vitro ADME
- PARTICULARS: read-out: fp,human free fraction in plasma
MEASURED ENDPOINT: fraction unbound
Respond using a number only.

Reported fraction unbound of O=c1[nH]nc(CCc2ccc(C(F)(F)F)cc2)cc1O : 0.0067

====

- TEST: in vivo
- PARTICULARS: C57BL/6 J, mouse
MEASURED ENDPOINT: Kp
Respond using a number only.

Reported Kp of O=c1[nH]nc(CCc2ccc(C(F)(F)F)cc2)cc1O : 0.181
